molecular target: P2X7R point mutant F95A (Homo sapiens, UniProt Q99572, F95A/I21V/M24R/N16P/N25R/Q22R/R20V/S23N/T19I/Y26L); assay: cell-based
Sequence (Q99572 whole entry N16P/T19I/R20V/I21V/Q22R/S23N/M24R/N25R/Y26L/F95A): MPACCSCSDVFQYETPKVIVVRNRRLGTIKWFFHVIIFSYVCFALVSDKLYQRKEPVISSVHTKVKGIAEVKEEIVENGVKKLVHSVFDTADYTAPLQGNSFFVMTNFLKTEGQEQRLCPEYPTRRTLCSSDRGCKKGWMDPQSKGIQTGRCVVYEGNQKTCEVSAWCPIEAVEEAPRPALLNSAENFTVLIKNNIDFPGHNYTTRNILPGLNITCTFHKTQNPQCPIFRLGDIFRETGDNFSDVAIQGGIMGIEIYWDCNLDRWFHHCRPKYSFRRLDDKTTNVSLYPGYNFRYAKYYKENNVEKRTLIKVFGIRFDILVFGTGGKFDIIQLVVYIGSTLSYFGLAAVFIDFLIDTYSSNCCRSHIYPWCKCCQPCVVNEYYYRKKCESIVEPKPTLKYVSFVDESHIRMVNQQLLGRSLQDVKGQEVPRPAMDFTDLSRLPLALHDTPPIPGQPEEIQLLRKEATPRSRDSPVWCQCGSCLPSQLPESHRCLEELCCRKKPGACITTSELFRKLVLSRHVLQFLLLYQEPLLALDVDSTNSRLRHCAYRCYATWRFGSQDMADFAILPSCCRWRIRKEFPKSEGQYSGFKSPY
ASSAY_ENDPOINT: pIC50
The scale used: pIC50 is minus the common logarithm of the concentration in molar units.

Ask: What value of pIC50 has been recorded for this entry: COc1ccc(CC(=O)NC(N=C(NC#N)Nc2cccc3ncccc23)C(C)(C)C)cc1OC (centres unmarked)
Result: 6.00

###

molecular target: P2X7R point mutant A166G (Homo sapiens, UniProt Q99572, A166G/I21V/M24R/N16P/N25R/Q22R/R20V/S23N/T19I/Y26L); experiment: Two-electrode voltage clamp of ATP-evoked currents in Xenopus oocytes; conditions: EC90 ATP, mean ± S.E.M.
Sequence (Q99572 whole entry N16P/T19I/R20V/I21V/Q22R/S23N/M24R/N25R/Y26L/A166G): as the sequence (Q99572 whole entry N16P/T19I/R20V/I21V/Q22R/S23N/M24R/N25R/Y26L/F95A) above, with A95F, A166G counted along it
ASSAY_ENDPOINT: pIC50
Expect pIC50 as a plain number equal to -log10 of the molar concentration.

Ask: What does the record list as pIC50 for COc1ccc(CC(=O)NC(N=C(NC#N)Nc2cccc3ncccc23)C(C)(C)C)cc1OC (centres unmarked) ?
Result: 6.50

Here is another compound to look at.
Ask: Form field: reported pIC50 of Cl.Clc1cccc(-c2nnnn2Cc2cccnc2)c1Cl.O
Result: 5.40

###

biological target: P2X7R point mutant L97P (Homo sapiens, UniProt Q99572, I21V/L97P/M24R/N16P/N25R/Q22R/R20V/S23N/T19I/Y26L); assay: cell-based
Sequence (Q99572 whole entry N16P/T19I/R20V/I21V/Q22R/S23N/M24R/N25R/Y26L/L97P): as the sequence (Q99572 whole entry N16P/T19I/R20V/I21V/Q22R/S23N/M24R/N25R/Y26L/F95A) above, with A95F, L97P counted along it
ASSAY_ENDPOINT: pIC50
By convention, pIC50 is the negative base-10 log of a molar concentration.

Ask: // query pIC50 value for entry COc1ccc(CC(=O)NC(N=C(NC#N)Nc2cccc3ncccc23)C(C)(C)C)cc1OC (stereo not shown)
Result: 6.40

###

target: chimeric P2X7/1 receptor 89–94 (Homo sapiens, UniProt Q99572, I21V/M24R/N16P/N25R/Q22R/R20V/S23N/T19I/T90V/T94V/Y26L); assay: Two-electrode voltage clamp of ATP-evoked currents in Xenopus oocytes; settings: chimera 89–94; inhibition of EC90 ATP response
Sequence (Q99572 whole entry N16P/T19I/R20V/I21V/Q22R/S23N/M24R/N25R/Y26L/T90V/T94V): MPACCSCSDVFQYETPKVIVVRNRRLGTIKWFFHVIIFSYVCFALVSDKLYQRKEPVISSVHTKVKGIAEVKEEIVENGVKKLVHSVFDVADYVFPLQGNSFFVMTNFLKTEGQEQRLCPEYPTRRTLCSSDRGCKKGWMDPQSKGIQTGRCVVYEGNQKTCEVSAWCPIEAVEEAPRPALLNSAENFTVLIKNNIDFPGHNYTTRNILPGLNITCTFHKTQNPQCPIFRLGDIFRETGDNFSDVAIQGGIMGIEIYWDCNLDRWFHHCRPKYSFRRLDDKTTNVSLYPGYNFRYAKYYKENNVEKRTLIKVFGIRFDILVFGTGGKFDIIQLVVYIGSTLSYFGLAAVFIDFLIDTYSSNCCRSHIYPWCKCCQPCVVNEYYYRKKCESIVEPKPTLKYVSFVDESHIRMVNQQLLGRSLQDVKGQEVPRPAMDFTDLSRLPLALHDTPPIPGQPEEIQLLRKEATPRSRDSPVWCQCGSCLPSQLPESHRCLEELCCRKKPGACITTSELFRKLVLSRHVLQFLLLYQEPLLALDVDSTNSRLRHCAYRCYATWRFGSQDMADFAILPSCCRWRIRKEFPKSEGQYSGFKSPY
ASSAY_ENDPOINT: IC50 (µM)
// return numeric value only (unit: µM, not printed)

Ask: So what's the measured IC50 for this one? COc1ccc(CC(=O)NC(N=C(NC#N)Nc2cccc3ncccc23)C(C)(C)C)cc1OC (centres unmarked)
Result: 0.251

###

target: P2X7R point mutant T308A (Homo sapiens, UniProt Q99572, I21V/M24R/N16P/N25R/Q22R/R20V/S23N/T19I/T308A/Y26L); assay: Two-electrode voltage clamp of ATP-evoked currents in Xenopus oocytes; conditions: EC90 ATP, mean ± S.E.M.
ASSAY_ENDPOINT: IC50 (nM)
Kindly provide the numeric value in nM only, without the unit symbol.

Ask: Can you look up the measured IC50 of Cl.Clc1cccc(-c2nnnn2Cc2cccnc2)c1Cl.O for me?
Result: 1000

Others:
Ask: Given the molecule COc1ccc(CC(=O)NC(N=C(NC#N)Nc2cccc3ncccc23)C(C)(C)C)cc1OC (centres unmarked) , what is its reported IC50?
Result: 100

###

biological target: P2X7R point mutant T94V (Homo sapiens, UniProt Q99572, I21V/M24R/N16P/N25R/Q22R/R20V/S23N/T19I/T94V/Y26L); experiment: Two-electrode voltage clamp of ATP-evoked currents in Xenopus oocytes; conditions: EC90 ATP, mean ± S.E.M.
Sequence (Q99572 whole entry N16P/T19I/R20V/I21V/Q22R/S23N/M24R/N25R/Y26L/T94V): as the sequence (Q99572 whole entry N16P/T19I/R20V/I21V/Q22R/S23N/M24R/N25R/Y26L/T90V/T94V) above, with V90T counted along it
ASSAY_ENDPOINT: pIC50
Value format note: pIC50 is -log10 of concentration (mol/L); just state the number.

Ask: Which pIC50 value belongs to COc1ccc(CC(=O)NC(N=C(NC#N)Nc2cccc3ncccc23)C(C)(C)C)cc1OC (centres unmarked) ?
Result: 6.40
